Test: Rat PK study #3 (ABBV-744 IV 1 mg/kg and PO 5 mg/kg)
Format: in vivo, SD rats
Conditions: male, Sprague-Dawley, rat, plasma, iv, 1 mg/kg, SD rats, IV 1 mg/kg, DMSO/PEG-400/Milli-Q water formulation, mean of 3 animals
Procedure: For the third rat pharmacokinetic study, the pharmacokinetics of ABBV-744 were assessed in male SD rats for comparison to Compound A. ABBV-744 was prepared in a formulation of 5% DMSO, 40% PEG-400, and 55% Milli-Q water (see Table 2D for formulation) and delivered to animals orally (PO) at a dose of 5 mg/kg, or intravenously (IV) at a dose of 1 mg/kg. Animals in each group (n=3) were then monitored over a 24-hour period. […]
quantity: half-life
Quick note: number first, unit second.

Which measured half-life value corresponds to `CCNC(=O)c1cc2c(-c3cc(C(C)(C)O)ccc3Oc3c(C)cc(F)cc3C)cn(C)c(=O)c2[nH]1` ?
127 min

###

experiment: Dog PK study #3 (Compound A PO once daily 5 days, 5/10/20 mg/kg; PK, body weight, hematology); format: in vivo, beagle dogs; details: male, beagle, dog, plasma, po, 5 mg/kg, Day 1, 5 mg/kg dose PO; individual animals; read-out: Cmax
quantity: Cmax (µg/mL)
Your answer is read as µg/mL, so omit the unit and give the number.

Which measured Cmax value corresponds to `Cn1cc(-c2ccccc2)c(-c2cn(C)c(=O)c3[nH]c(-c4cnn(C(F)(F)F)c4)cc23)cc1=O` ?
0.785

###

experiment: CIA study: pharmacokinetics / plasma concentration after oral administration; assay type: in vivo, Lewis rats; conditions: Lewis, rat, plasma, po, 3 mg/kg, CIA-induced animals, day 0, 3 mg/kg, average; read-out: Tmax (Mean)
quantity: Tmax (h)
Your answer is read as h, so omit the unit and give the number.

Which measured Tmax value corresponds to `Cn1cc(-c2ccccc2)c(-c2cn(C)c(=O)c3[nH]c(-c4cnn(C(F)(F)F)c4)cc23)cc1=O` ?
5.33

###

assay: Dog PK study #4 (Compound A PO daily 14 days, 1/3/10 mg/kg; toxicokinetics, platelet counts); type: in vivo, beagle dogs; settings: beagle, dog, plasma, oral; after daily administration for 14 days, 3 mg/kg, Female, 8 h
quantity: concentration at 8 h (µg/mL)
Your answer is read as µg/mL, so omit the unit and give the number.

Which measured concentration at 8 h value corresponds to Cn1cc(-c2ccccc2)c(-c2cn(C)c(=O)c3[nH]c(-c4cnn(C(F)(F)F)c4)cc23)cc1=O [Compound A] ?
0.0875

###

Kindly supply the reported IC50 values for the records listed here.
Biological target: BRD4 BD1 (Homo sapiens, UniProt O60885)
Construct: HEK293 cells were transfected using NanoLuc-BRD4-BD1 or NanoLuc-BRD4-BD2 fusion vectors
Assay: NanoBRET bromodomain assay, NanoLuc-BRD4-BD1 in HEK293 cells
Method: Exemplary compounds of the disclosure are active against BRD4 BD2 and selective over BRD4 BD1. BRD4 is a representative example of the BET family, as the binding sites of all BET family members are structurally similar. […] IC50s and fold selectivity's are determined as described below and are represented in Table 1. Plates were then incubated at 37° C.+5% CO2 incubator for 2 hours. Fold Selectivity Calculated (IC50 BD1/IC50 BD2).

Which measured IC50 value corresponds to `COCCOc1cccc(-c2cn(C)c(=O)cc2-c2cn(C)c(=O)c3[nH]c(-c4cnn(C(C)C)c4)cc23)c1` ?
> 1000 nM

Which measured IC50 value corresponds to `CSCc1cccc(-c2cn(C)c(=O)cc2-c2cn(C)c(=O)c3[nH]c(-c4cnn(C(F)(F)F)c4)cc23)c1` ?
> 1000 nM

Which measured IC50 value corresponds to `Cc1cccc(C)c1Oc1cn(C)c(=O)cc1-c1cn(C)c(=O)c2[nH]c(-c3cccc(C(F)F)c3F)cc12` ?
> 1000 nM

Which measured IC50 value corresponds to Cn1cc(-c2cc(=O)n(C3CC(O)C3)cc2-c2ccccc2)c2cc(-c3cnn(C(F)(F)F)c3)[nH]c2c1=O (stereo not shown) ?
500 to 1000 nM

###

experiment: Dog PK study #4 (Compound A PO daily 14 days, 1/3/10 mg/kg; toxicokinetics, platelet counts); type: in vivo, beagle dogs; conditions: both sexes, beagle, dog, plasma, oral; after daily administration for 14 days, 1 mg/kg, Pooled Mean, 8 h
quantity: concentration at 8 h (ng/mL)
Your answer is read as ng/mL, so omit the unit and give the number.

Which measured concentration at 8 h value corresponds to `Cn1cc(-c2ccccc2)c(-c2cn(C)c(=O)c3[nH]c(-c4cnn(C(F)(F)F)c4)cc23)cc1=O` ?
25.1

###

test: Dog PK study #4 (Compound A PO daily 14 days, 1/3/10 mg/kg; toxicokinetics, platelet counts); format: in vivo, beagle dogs; conditions: both sexes, beagle, dog, plasma, oral; after daily administration for 14 days, 10 mg/kg, Pooled Mean, 4 h
quantity: concentration at 4 h (ng/mL)
Your answer is read as ng/mL, so omit the unit and give the number.

Which measured concentration at 4 h value corresponds to Cn1cc(-c2ccccc2)c(-c2cn(C)c(=O)c3[nH]c(-c4cnn(C(F)(F)F)c4)cc23)cc1=O [Compound A] ?
1210

###

assay: Dog PK study #2 (Compound A IV, HPBCD formulation); assay type: in vivo, beagle dogs; settings: beagle, dog, plasma, iv, 1 mg/kg, IV 1 mg/kg, HPBCD formulation, 1 h; individual animals; read-out: Plasma concentration
quantity: concentration at 1 h (ng/mL)
Your answer is read as ng/mL, so omit the unit and give the number.

Which measured concentration at 1 h value corresponds to `Cn1cc(-c2ccccc2)c(-c2cn(C)c(=O)c3[nH]c(-c4cnn(C(F)(F)F)c4)cc23)cc1=O` ?
331

###

experiment: Dog PK study #1 (Compound A IV and PO, propylene glycol formulation); type: in vivo, beagle dogs; details: beagle, dog, plasma, iv, 1 mg/kg, IV 1 mg/kg, 0.25 h; mean; read-out: Average plasma concentration
quantity: concentration at 0.25 h (ng/mL)
Your answer is read as ng/mL, so omit the unit and give the number.

Which measured concentration at 0.25 h value corresponds to Cn1cc(-c2ccccc2)c(-c2cn(C)c(=O)c3[nH]c(-c4cnn(C(F)(F)F)c4)cc23)cc1=O [Compound A] ?
1130

###

experiment: Rat PK study #3 (ABBV-744 IV 1 mg/kg and PO 5 mg/kg); format: in vivo, SD rats; conditions: male, Sprague-Dawley, rat, plasma, po, 5 mg/kg, SD rats, PO 5 mg/kg, DMSO/PEG-400/Milli-Q water formulation, 0.083 h, mean of 3 animals
quantity: concentration at 0.083 h

Which measured concentration at 0.083 h value corresponds to CCNC(=O)c1cc2c(-c3cc(C(C)(C)O)ccc3Oc3c(C)cc(F)cc3C)cn(C)c(=O)c2[nH]1 [ABBV-744] ?
1.61 ng/mL

###

assay: Rat PK study #4 (Compound A PO 0.2 and 1.0 mg/kg, propylene glycol formulation); assay type: in vivo, Lewis rats; conditions: male, Lewis, rat, plasma, po, 0.2 mg/kg, Lewis rats, PO 0.2 mg/kg, propylene glycol-based formulation, 0.5 h, mean of 3 animals
quantity: concentration at 0.5 h
Quick note: number first, unit second.

Which measured concentration at 0.5 h value corresponds to Cn1cc(-c2ccccc2)c(-c2cn(C)c(=O)c3[nH]c(-c4cnn(C(F)(F)F)c4)cc23)cc1=O [Compound A] ?
1.77 ng/mL

###

experiment: CIA study: pharmacokinetics / plasma concentration after oral administration; type: in vivo, Lewis rats; details: Lewis, rat, plasma, po, 3 mg/kg, oral 3 mg/kg, day 0, 4 h, individual test subjects; read-out: Plasma concentration
quantity: concentration at 4 h (ng/mL)
Your answer is read as ng/mL, so omit the unit and give the number.

Which measured concentration at 4 h value corresponds to Cn1cc(-c2ccccc2)c(-c2cn(C)c(=O)c3[nH]c(-c4cnn(C(F)(F)F)c4)cc23)cc1=O [Compound A] ?
112

###

experiment: Rat PK study #3 (ABBV-744 IV 1 mg/kg and PO 5 mg/kg); type: in vivo, SD rats; conditions: male, Sprague-Dawley, rat, plasma, iv, 1 mg/kg, SD rats, IV 1 mg/kg, DMSO/PEG-400/Milli-Q water formulation, 0.083 h, mean of 3 animals
quantity: concentration at 0.083 h (ng/mL)
Your answer is read as ng/mL, so omit the unit and give the number.

Which measured concentration at 0.083 h value corresponds to `CCNC(=O)c1cc2c(-c3cc(C(C)(C)O)ccc3Oc3c(C)cc(F)cc3C)cn(C)c(=O)c2[nH]1` ?
337

###

Test: Dog PK study #2 (Compound A IV, HPBCD formulation)
Type: in vivo, beagle dogs
Conditions: beagle, dog, plasma, iv, 1 mg/kg, IV 1 mg/kg, HPBCD formulation; mean
Experimental: For Dog PK study #2, a solution of Compound A was prepared in HPBCD (20% solution w/v)/DMSO (99/1) with a concentration of 0.5 mg/mL (Table 2B). The Compound A solution was administered to animals intravenously (IV), and animals were monitored over a 24 h period (Table 3C). Body weight was recorded prior to dosing, and detailed clinical observations were made prior to dosing and throughout the study, as needed. […]
quantity: AUC (ng·h/mL)
Your answer is read as ng·h/mL, so omit the unit and give the number.

Which measured AUC value corresponds to `Cn1cc(-c2ccccc2)c(-c2cn(C)c(=O)c3[nH]c(-c4cnn(C(F)(F)F)c4)cc23)cc1=O` ?
2870
